// data source = patent US8487104B2

experimental-details: Pharmacokinetics Studies in Dog
Assay type: in vivo
test-conditions: male, beagle, dog, plasma; dogs, oral administration; dose 5 mg/kg (Ex 3, 2), 2 mg/kg (Ex 5)
Counter-ions that a name gives are not always drawn.
half-life values for the compounds below.
Quick reminder: number only, in h, skip the unit.

Known results for compounds:
COC[C@H](C)Oc1ccc2c(c1)N(O)C(=O)[C@@H](N)C2 [Example 2, HCl Salt] = 2.28
COCCOc1ccc2c(c1)N(O)C(=O)[C@@H](N)C2 [Example 3, HCl Salt] = 1.05

--- query ---
Q: Consider the compound shown here: CC(C)Oc1ccc2c(c1)N(O)C(=O)[C@@H](N)C2 [Example 5, HCl Salt] What is its recorded half-life?
A: 0.46

----------
IC50 values for the molecules below.
assayed-system: human KAT II (hKAT II) enzyme (Homo sapiens, UniProt Q8N5Z0)
Sequence (Q8N5Z0 30-425): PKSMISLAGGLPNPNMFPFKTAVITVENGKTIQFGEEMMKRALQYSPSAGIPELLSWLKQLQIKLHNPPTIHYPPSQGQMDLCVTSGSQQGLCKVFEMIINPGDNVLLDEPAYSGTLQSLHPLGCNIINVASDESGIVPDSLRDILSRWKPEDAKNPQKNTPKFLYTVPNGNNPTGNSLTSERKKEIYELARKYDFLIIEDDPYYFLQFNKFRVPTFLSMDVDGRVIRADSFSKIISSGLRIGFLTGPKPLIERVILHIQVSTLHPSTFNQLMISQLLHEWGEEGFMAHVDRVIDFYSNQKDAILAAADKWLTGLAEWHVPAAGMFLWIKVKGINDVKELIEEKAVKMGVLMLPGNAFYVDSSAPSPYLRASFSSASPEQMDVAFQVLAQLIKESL
experimental-details: Human KAT II Inhibition Spectra Assay
Assay type: biochemical
test-conditions: OD370 readout, 37° C., 15-20 h incubation; read-out: hKATII IC50
Counter-ions that a name gives are not always drawn.
Quick reminder: number only, in nM, skip the unit.

Known results for molecules:
N[C@H]1Cc2ccccc2N(O)C1=O [Example 4] = 27
N#Cc1cccc2c1N(O)C(=O)C(N)C2 (centres unmarked) [Example 6, HCl Salt] = 30
COCCOc1ccc2c(c1)N(O)C(=O)[C@@H](N)C2 [Example 3, HCl Salt] = 22
N#Cc1ccc2c(c1)N(O)C(=O)[C@@H](N)C2 [Example 1, HCl Salt] = 19

--- query ---
Q: Consider the molecule shown here: COC[C@H](C)Oc1ccc2c(c1)N(O)C(=O)[C@@H](N)C2 [Example 2, HCl Salt] What is its recorded IC50?
A: 18

----------
assayed-system: human KATII enzyme (Homo sapiens)
Sequence (Q8N5Z0 30-425): as above
experimental-details: KATII Kinetic Assay (kinact/KI determination)
Assay type: biochemical
test-conditions: read-out: hKATII kinact/KI
Where a name gives a salt, the structure may show the parent alone.
test-readout: kinact/KI (M⁻¹ s⁻¹)
Quick reminder: number only, in M⁻¹ s⁻¹, skip the unit.

N[C@H]1Cc2ccccc2N(O)C1=O = 21500
CC(C)Oc1ccc2c(c1)N(O)C(=O)[C@@H](N)C2 [Example 5, HCl Salt] = 17100
N#Cc1ccc2c(c1)N(O)C(=O)[C@@H](N)C2 [Example 1, HCl Salt] = 46200

--- query ---
Q: Consider the compound shown here: COC[C@H](C)Oc1ccc2c(c1)N(O)C(=O)[C@@H](N)C2 [Example 2, HCl Salt] What is its recorded kinact/KI?
A: 25100

----------
experimental-details: Pharmacokinetics Studies in Dog
Assay type: in vivo
test-conditions: male, beagle, dog, plasma; dogs, oral administration; dose 5 mg/kg (Ex 3, 2), 2 mg/kg (Ex 5)
Where a name gives a salt, the structure may show the parent alone.
Cmax values for the compounds below.
Quick reminder: number only, in ng/mL, skip the unit.

Known results for compounds:
CC(C)Oc1ccc2c(c1)N(O)C(=O)[C@@H](N)C2 [Example 5, HCl Salt] = 19.6
COC[C@H](C)Oc1ccc2c(c1)N(O)C(=O)[C@@H](N)C2 [Example 2, HCl Salt] = 229

Q: Consider the compound shown here: COCCOc1ccc2c(c1)N(O)C(=O)[C@@H](N)C2 [Example 3, HCl Salt] What is its recorded Cmax?
A: 198

----------
experimental-details: Pharmacokinetics Studies in Dog
Type: in vivo
test-conditions: male, beagle, dog, plasma; dogs, oral administration; dose 5 mg/kg (Ex 3, 2), 2 mg/kg (Ex 5)
Where a name gives a salt, the structure may show the parent alone.
test-readout: AUC (ng·h/mL)
Quick reminder: number only, in ng·h/mL, skip the unit.

CC(C)Oc1ccc2c(c1)N(O)C(=O)[C@@H](N)C2 [Example 5, HCl Salt] = 18.6
COC[C@H](C)Oc1ccc2c(c1)N(O)C(=O)[C@@H](N)C2 [Example 2, HCl Salt] = 195

--- query ---
Q: Consider the molecule shown here: COCCOc1ccc2c(c1)N(O)C(=O)[C@@H](N)C2 [Example 3, HCl Salt] What is its recorded AUC?
A: 156

----------
assayed-system: human KAT II (hKAT II) enzyme (Homo sapiens, UniProt Q8N5Z0)
experimental-details: Human KAT II Inhibition Spectra Assay
Assay type: biochemical
Description: Human KAT II Inhibition Spectra Assay Formation of kynurenic acid (KYNA) is indirectly assessed by a decrease in light absorbance at 370 nm (OD370) as the L-kynurenine (KYN) substrate is converted by the human KAT II (hKAT II) enzyme into KYNA. An inhibitor would therefore inhibit the decrease in OD370. […] Plates were sealed and incubated at 37° C. for 15-20 h before reading OD370 on a SpectraMax Plus plate reader. […]
Counter-ions that a name gives are not always drawn.
test-readout: IC50 (nM)
Quick reminder: number only, in nM, skip the unit.

Q: Consider the compound shown here: CC(C)Oc1ccc2c(c1)N(O)C(=O)[C@@H](N)C2 [Example 5, HCl Salt] What is its recorded IC50?
A: 32

----------
experimental-details: Pharmacokinetics Studies in Dog
Type: in vivo
test-conditions: male, beagle, dog, plasma; dogs, IV administration, dose = 0.5 mg/kg
Counter-ions that a name gives are not always drawn.
test-readout: half-life (min)
Quick reminder: number only, in min, skip the unit.

COC[C@H](C)Oc1ccc2c(c1)N(O)C(=O)[C@@H](N)C2 [Example 2, HCl Salt] = 30
CC(C)Oc1ccc2c(c1)N(O)C(=O)[C@@H](N)C2 [Example 5, HCl Salt] = 36

--- query ---
Q: Consider the compound shown here: COCCOc1ccc2c(c1)N(O)C(=O)[C@@H](N)C2 [Example 3, HCl Salt] What is its recorded half-life?
A: 54

----------
experimental-details: Pharmacokinetics Studies in Dog
Type: in vivo
test-conditions: male, beagle, dog, plasma; dogs, IV administration, dose = 0.5 mg/kg
Counter-ions that a name gives are not always drawn.
test-readout: clearance (mL/min/kg)
Quick reminder: number only, in mL/min/kg, skip the unit.

Known results for compounds:
CC(C)Oc1ccc2c(c1)N(O)C(=O)[C@@H](N)C2 [Example 5, HCl Salt] = 38.7
COC[C@H](C)Oc1ccc2c(c1)N(O)C(=O)[C@@H](N)C2 [Example 2, HCl Salt] = 44.9

Q: Consider the compound shown here: COCCOc1ccc2c(c1)N(O)C(=O)[C@@H](N)C2 [Example 3, HCl Salt] What is its recorded clearance?
A: 43.4

----------
experimental-details: Pharmacokinetics Studies in Dog
Type: in vivo
test-conditions: male, beagle, dog, plasma; dogs, IV administration, dose = 0.5 mg/kg
Counter-ions that a name gives are not always drawn.
C0 values for the molecules below.
Quick reminder: number only, in ng/mL, skip the unit.

CC(C)Oc1ccc2c(c1)N(O)C(=O)[C@@H](N)C2 [Example 5, HCl Salt] = 265
COC[C@H](C)Oc1ccc2c(c1)N(O)C(=O)[C@@H](N)C2 [Example 2, HCl Salt] = 352

Q: Consider the molecule shown here: COCCOc1ccc2c(c1)N(O)C(=O)[C@@H](N)C2 [Example 3, HCl Salt] What is its recorded C0?
A: 446
